# assay.system: Recombinant human cathepsin K (Homo sapiens)
# Construct: made in house
# assay.method.text: Kinetic measurements, hydrolysis of the fluorogenic substrate Z-FR↓AMC (general modifier mechanism)
# Type: biochemical
# Design: key: dimensionless coefficients multiplying KS (α) and kcat (β)
# assay.setup: substrate Z-FR↓AMC; pH 5.50, 25°C, 0.5 nM enzyme
# t = β (coefficient, effect of modifier on the catalytic rate) below 0.6 (exclusive); f = β (coefficient, effect of modifier on the catalytic rate) at/above 0.6

Reference set, count: 4
> print(dat)
                                   compound  assigned.category
1  O=C(O)c1ccccc1C(=O)Nc1cccc([N+](=O)[O-])c1 [Compound 7, 2-[(3-Nitrophenyl)carbamoyl]benzoic acid]                  t
2  Nc1cc(C(=O)O)ccc1NCC1CCCO1 (stereo not drawn)                  t
3                    NCC1CCN(CCc2ccccc2)CC1                  f
4  COC(=O)CNC1CC(=O)N(c2ccc(OC)cc2)C1=O (stereo not drawn)                  t

Dear reviewer, please state whether OC(c1cc(-c2ccc(C(F)(F)F)cc2)nc(C(F)(F)F)c1)C1CCCCN1 (stereo not drawn) has β (coefficient, effect of modifier on the catalytic rate) strictly beneath 0.6.
f

Dear reviewer, please state whether `O=C(O)C(Cc1ccccc1-c1ccccc1)C(=O)O` has β (coefficient, effect of modifier on the catalytic rate) strictly beneath 0.6.
f

====

# assay.system: Recombinant human cathepsin K (Homo sapiens, UniProt P43235)
# Sequence (P43235 115-329): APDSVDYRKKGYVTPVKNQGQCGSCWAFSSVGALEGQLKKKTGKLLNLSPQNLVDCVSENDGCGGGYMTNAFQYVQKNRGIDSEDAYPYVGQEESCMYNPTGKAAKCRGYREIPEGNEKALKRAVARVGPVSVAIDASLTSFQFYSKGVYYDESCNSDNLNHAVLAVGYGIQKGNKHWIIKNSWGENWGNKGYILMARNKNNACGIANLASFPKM
# assay.method.text: Kinetic measurements, hydrolysis of the fluorogenic substrate Z-FR↓AMC (general modifier mechanism)
# assay.setup: substrate Z-FR↓AMC; pH 5.50, 25°C, 0.5 nM enzyme; read-out: K A (equilibrium dissociation constant of the EA complex)
Task for the reader: assign each of the following molecules its reported pKd.
Give bare numbers, as −log10 of the molar value.

Some solved entries appear below for comparison.
> print(dat)
                                   molecule  value.type  number
1  Nc1cc(C(=O)O)ccc1NCC1CCCO1 (stereo not shown)         pKd    3.72
2  O=C(O)c1ccccc1C(=O)Nc1cccc([N+](=O)[O-])c1 [Compound 7, 2-[(3-Nitrophenyl)carbamoyl]benzoic acid]         pKd    3.54
3                    NCC1CCN(CCc2ccccc2)CC1         pKd    3.57
4  OC(c1cc(-c2ccc(C(F)(F)F)cc2)nc(C(F)(F)F)c1)C1CCCCN1 (stereo not shown)         pKd    3.82
5  COC(=O)CNC1CC(=O)N(c2ccc(OC)cc2)C1=O (stereo not shown)         pKd    2.96
6         O=C(Nc1ccc(C(=O)O)c(O)c1)c1ccccc1         pKd    3.96

API: the following record is the query input.
Complete the entry with pKd for `O=C(O)C(Cc1ccccc1-c1ccccc1)C(=O)O`
4.00

====

Task for the reader: assign each of the following molecules its reported remaining activity.
# assay.system: Recombinant human cathepsin K (Homo sapiens, UniProt P43235)
# Construct: made in house
# assay.method.text: Azocasein degradation assays
# Format: biochemical
# assay.setup: pH 5.5; substrate azocasein 3 mg/ml; 0.1 µM cathepsin K, 30 min 37°C, pH 5.50; compounds up to 2 mM (compound 2: 1 mM); read-out: Residual activity
One number for each entry, in %.

Some solved entries appear below for comparison.
> print(dat)
                                   molecule                              assay.system  number
1  O=C(O)c1ccccc1C(=O)Nc1cccc([N+](=O)[O-])c1 [Compound 7, 2-[(3-Nitrophenyl)carbamoyl]benzoic acid]  Recombinant human cathepsin K (Homo sapiens, UniProt P43235)     104
2         O=C(Nc1ccc(C(=O)O)c(O)c1)c1ccccc1  Recombinant human cathepsin K (Homo sapiens, UniProt P43235)      86
3  OC(c1cc(-c2ccc(C(F)(F)F)cc2)nc(C(F)(F)F)c1)C1CCCCN1 (stereo not shown)  Recombinant human cathepsin K (Homo sapiens, UniProt P43235)      93

Provide reported remaining activity for each item, in the same order as listed.
1. COC(=O)CNC1CC(=O)N(c2ccc(OC)cc2)C1=O (stereo not shown)
2. Nc1cc(C(=O)O)ccc1NCC1CCCO1 (stereo not shown)
3. O=C(O)C(Cc1ccccc1-c1ccccc1)C(=O)O
4. NCC1CCN(CCc2ccccc2)CC1

[101, 74, 90, 77]

====

# assay.system: Recombinant human cathepsin K (Homo sapiens, UniProt P43235)
# Construct: made in house
# assay.method.text: Azocasein degradation assays
# Type: biochemical
# assay.setup: azocasein degradation
value.type: IC50 (µM)
Answers are plain numbers, in µM.

> print(dat)
                 compound  value.type  number
1  NCC1CCN(CCc2ccccc2)CC1        IC50    1100

Report IC50 from Recombinant human cathepsin K (Homo sapiens, UniProt P43235) testing of Nc1cc(C(=O)O)ccc1NCC1CCCO1 (centres unmarked)
730

====

Task for the reader: assign each of the following molecules its reported collagen: qualitative value.
# assay.system: Recombinant human cathepsin K (Homo sapiens)
# Construct: made in house
# Sequence (P43235 115-329): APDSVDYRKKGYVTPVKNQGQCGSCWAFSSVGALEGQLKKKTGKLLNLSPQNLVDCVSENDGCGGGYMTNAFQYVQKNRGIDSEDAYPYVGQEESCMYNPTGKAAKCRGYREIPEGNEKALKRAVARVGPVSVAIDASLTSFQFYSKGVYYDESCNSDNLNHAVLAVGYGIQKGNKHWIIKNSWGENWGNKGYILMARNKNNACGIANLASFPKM
# assay.method.text: Collagenolytic assays (calf skin collagen, SDS-PAGE)
# Assay type: biochemical
# Set-up: key: qualitative value: qualitative values of 1 and 0 were used to signify inhibition and lack thereof, respectively; qualitative values of 1 and 0 were used to signify inhibition and lack thereof, respectively; a value of -1 was used to describe the concentration-dependent roles of glycosaminoglycans
# assay.setup: activity modification matrix
One number for each entry.

Provide reported collagen: qualitative value for each item, in the same order as listed.
1. O=C(Nc1ccc(C(=O)O)c(O)c1)c1ccccc1 [Compound 3, N-Benzoyl-p-aminosalicylic acid]
2. O=C(O)C(Cc1ccccc1-c1ccccc1)C(=O)O [Compound 4, (2-Biphenylylmethyl) malonic acid]
3. NCC1CCN(CCc2ccccc2)CC1 [Compound 6]
4. Nc1cc(C(=O)O)ccc1NCC1CCCO1 (stereo not shown) [Compound 1]
5. O=C(O)c1ccccc1C(=O)Nc1cccc([N+](=O)[O-])c1 [Compound 7, 2-[(3-Nitrophenyl)carbamoyl]benzoic acid]
6. COC(=O)CNC1CC(=O)N(c2ccc(OC)cc2)C1=O (stereo not shown) [Compound 8]
7. OC(c1cc(-c2ccc(C(F)(F)F)cc2)nc(C(F)(F)F)c1)C1CCCCN1 (stereo not shown) [Compound 2]

[0, 0, 0, 1, 0, 0, 1]

====

# assay.system: Recombinant human cathepsin K (Homo sapiens, UniProt P43235)
# Construct: made in house
# assay.method.text: Collagenolytic assays (calf skin collagen, SDS-PAGE)
# Format: biochemical
# assay.setup: degradation of calf skin collagen; read-out: IC 50 (estimated)
Task for the reader: assign each of the following compounds its reported IC50.

> print(dat)
                                   compound  value.type    result
1  Nc1cc(C(=O)O)ccc1NCC1CCCO1 (centres unmarked)        IC50  ~1000 µM

API: the following record is the query input.
Complete the entry with IC50 for OC(c1cc(-c2ccc(C(F)(F)F)cc2)nc(C(F)(F)F)c1)C1CCCCN1 (centres unmarked)
~500 µM

====

Task for the reader: assign each of the following compounds its reported IC50.
# assay.system: Recombinant human cathepsin K (Homo sapiens)
# Construct: made in house
# Sequence (P43235 115-329): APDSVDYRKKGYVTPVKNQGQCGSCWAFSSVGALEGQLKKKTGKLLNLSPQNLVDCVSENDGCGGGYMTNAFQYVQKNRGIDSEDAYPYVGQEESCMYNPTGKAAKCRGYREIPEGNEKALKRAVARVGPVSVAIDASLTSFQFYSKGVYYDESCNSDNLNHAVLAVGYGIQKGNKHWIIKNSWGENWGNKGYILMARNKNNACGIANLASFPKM
# assay.method.text: Collagenolytic assays (calf skin collagen, SDS-PAGE)
# Assay type: biochemical
# assay.setup: substrate calf skin collagen 0.5 mg/ml; 0.6 µM cathepsin K, 2 hours 28°C, pH 5.50; estimated; read-out: IC 50
Give bare numbers, in µM.

> print(dat)
                                   compound                              assay.system  unit.text  number
1  Nc1cc(C(=O)O)ccc1NCC1CCCO1 (centres unmarked)  Recombinant human cathepsin K (Homo sapiens)         µM    1000

API: the following record is the query input.
Complete the entry with IC50 for OC(c1cc(-c2ccc(C(F)(F)F)cc2)nc(C(F)(F)F)c1)C1CCCCN1 (centres unmarked)
500
